run description: Cytotoxicity against PHA-stimulated mouse splenocytes assessed as cell survival at 32 uM after 96 hrs by MTT assay (reference value: 100%)
Type: cell-based, Splenocyte
measurement setup: read-out: Survival
quantity measured: viability at 96 h, 32 µM (%)

O=C1C(=C(c2ccc(O)cc2)c2ccc(O)cc2)c2cc(/C=C/c3ccc(O)c(O)c3)ccc2N1Cc1ccc(O)cc1 : 90.5

###

run description: Cytotoxicity against PHA-stimulated mouse splenocytes assessed as cell survival at 128 uM after 96 hrs by MTT assay (reference value: 100%)
Assay type: cell-based, Splenocyte
measurement setup: read-out: Survival
quantity measured: viability at 96 h, 128 µM (%)

O=C1C(=C(c2ccc(O)cc2)c2ccc(O)cc2)c2cc(/C=C/c3ccc(O)c(O)c3)ccc2N1Cc1ccc(O)cc1 : 85.2

###

run description: Cytotoxicity against PHA-stimulated mouse splenocytes assessed as cell survival at 16 uM after 96 hrs by MTT assay (reference value: 100%)
Type: cell-based, Splenocyte
measurement setup: read-out: Survival
quantity measured: viability at 96 h, 16 µM

O=C1C(=C(c2ccc(O)cc2)c2ccc(O)cc2)c2cc(/C=C/c3ccc(O)c(O)c3)ccc2N1Cc1ccc(O)cc1 : 92.3%

###

run description: Cytotoxicity against PHA-stimulated mouse splenocytes assessed as cell survival at 8 uM after 96 hrs by MTT assay (reference value: 100%)
Format: cell-based, Splenocyte
measurement setup: read-out: Survival
quantity measured: viability at 96 h, 8 µM (%)

O=C1C(=C(c2ccc(O)cc2)c2ccc(O)cc2)c2cc(/C=C/c3ccc(O)c(O)c3)ccc2N1Cc1ccc(O)cc1 : 96.6

###

System: Leishmania donovani
run description: Antileishmanial activity against Leishmania donovani MHOM/IN/1983/AG83 promastigotes transformed from splenic intracellular amastigotes of infected BALB/c mouse assessed as parasite survival at 32 uM after 48 hrs by MTT assay (reference value: 100%)
Assay type: functional
measurement setup: MHOM/IN/1983/AG83, 48 h
quantity measured: survival at 32 µM (%)

COc1ccc(CN2C(=O)C(=C(c3ccc(O)cc3)c3ccc(O)cc3)c3cc(/C=C/c4ccc(F)c(F)c4)ccc32)cc1 : 93.2
COc1ccc(CN2C(=O)C(=C(c3ccc(O)cc3)c3ccc(O)cc3)c3cc(/C=C/c4ccc(C)c(C)c4)ccc32)cc1 : 93.7
COc1ccc(CN2C(=O)C(=C(c3ccc(O)cc3)c3ccc(O)cc3)c3cc(/C=C/c4ccc(OC)c(OC)c4)ccc32)cc1 : 53.7
O=C1C(=C(c2ccc(O)cc2)c2ccc(O)cc2)c2ccccc2N1Cc1ccc(O)cc1 : 92
O=C1C(=C(c2ccc(O)cc2)c2ccc(O)cc2)c2cc(/C=C/c3ccc(O)c(O)c3)ccc2N1Cc1ccc(O)cc1 : 31.6
COc1ccc(CN2C(=O)C(=C(c3ccc(O)cc3)c3ccc(O)cc3)c3ccccc32)cc1 : 66.1

###

System: Leishmania donovani
run description: Antileishmanial activity against Leishmania donovani MHOM/IN/1983/AG83 promastigotes transformed from splenic intracellular amastigotes of infected BALB/c mouse assessed as parasite survival at 8 uM after 48 hrs by MTT assay (reference value: 100%)
Format: functional
measurement setup: MHOM/IN/1983/AG83, 48 h
quantity measured: survival at 8 µM (%)

O=C1C(=C(c2ccc(O)cc2)c2ccc(O)cc2)c2ccccc2N1Cc1ccc(O)cc1 : 98.3
COc1ccc(CN2C(=O)C(=C(c3ccc(O)cc3)c3ccc(O)cc3)c3cc(/C=C/c4ccc(OC)c(OC)c4)ccc32)cc1 : 79.2
O=C1C(=C(c2ccc(O)cc2)c2ccc(O)cc2)c2cc(/C=C/c3ccc(O)c(O)c3)ccc2N1Cc1ccc(O)cc1 : 96.2
COc1ccc(CN2C(=O)C(=C(c3ccc(O)cc3)c3ccc(O)cc3)c3cc(/C=C/c4ccc(F)c(F)c4)ccc32)cc1 : 97.5
COc1ccc(CN2C(=O)C(=C(c3ccc(O)cc3)c3ccc(O)cc3)c3ccccc32)cc1 : 96.4
COc1ccc(CN2C(=O)C(=C(c3ccc(O)cc3)c3ccc(O)cc3)c3cc(/C=C/c4ccc(C)c(C)c4)ccc32)cc1 : 97.2
